- target: T1, monomeric cynomolgus monkey CSF1R ectodomain protein (cynomolgus monkey, UniProt P07333 20-517 (human entry))
- T1 construct: also called monomeric cyno CSF1R; Cyno CSF1R
- T1 chain: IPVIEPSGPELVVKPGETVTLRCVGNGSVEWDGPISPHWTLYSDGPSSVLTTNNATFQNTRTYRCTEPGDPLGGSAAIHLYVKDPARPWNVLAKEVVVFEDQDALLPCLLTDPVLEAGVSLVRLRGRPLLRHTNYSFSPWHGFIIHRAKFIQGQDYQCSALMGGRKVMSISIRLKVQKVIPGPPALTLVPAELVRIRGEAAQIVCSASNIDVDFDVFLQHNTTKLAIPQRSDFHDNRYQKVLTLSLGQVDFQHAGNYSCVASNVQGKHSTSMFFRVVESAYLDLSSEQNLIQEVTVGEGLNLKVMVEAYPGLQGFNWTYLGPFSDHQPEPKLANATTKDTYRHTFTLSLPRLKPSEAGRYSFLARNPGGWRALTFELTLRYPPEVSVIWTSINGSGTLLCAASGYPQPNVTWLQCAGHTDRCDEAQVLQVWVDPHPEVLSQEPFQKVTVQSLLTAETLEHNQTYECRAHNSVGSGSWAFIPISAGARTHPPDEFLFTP
- assayInfo: SPR Biacore, IgG captured, monomeric CSF1R analyte
measurementKind: koff (s⁻¹)
Just the number please, in s⁻¹, no unit attached.

// worked examples, koff included
>>> measvalue("MH16 (antibody, human IgG4, V domains shown, Deimmunized MH5 derivative, human IgG4(S228P)/Ckappa IgG; also called mAb-5) VH: QVQLVQSGAEVKKPGSSVKVSCKASGYTFSSAYMIWVRQAPGQGLEWMGDINPYNGGANYAQKFQGRVTITADESTSTAYMELSSLRSEDTAVYYCAREGPYFSNLYVMDYWGQGTLVTVSS VL: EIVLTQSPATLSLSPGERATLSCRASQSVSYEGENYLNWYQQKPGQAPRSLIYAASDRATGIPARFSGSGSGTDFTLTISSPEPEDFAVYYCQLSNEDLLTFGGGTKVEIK")
0.00075
>>> measvalue("humanized anti-CSF1R antibody 0301 (hu0301) (antibody, human IgG4, V domains shown, also called mAb-1) VH: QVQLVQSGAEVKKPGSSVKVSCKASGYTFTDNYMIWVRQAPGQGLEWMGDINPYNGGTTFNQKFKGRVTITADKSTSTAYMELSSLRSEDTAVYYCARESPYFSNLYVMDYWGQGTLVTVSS VL: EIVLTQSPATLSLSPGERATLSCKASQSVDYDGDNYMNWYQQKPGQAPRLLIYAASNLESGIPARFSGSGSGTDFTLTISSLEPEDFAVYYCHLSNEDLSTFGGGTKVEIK")
0.00033

Problem: For MH41 (antibody, human IgG4, V domains shown, Deimmunized MH5 derivative, human IgG4(S228P)/Ckappa IgG; also called MN41) VH: QVQLVQSGAEVKKPGSSVKVSCKASGYTFSSHYMIWVRQAPGQGLEWMGDINPYNGGANYAQKFQGRVTITADESTSTAYMELSSLRSEDTAVYYCAREGPYFSNLYVMDYWGRGTLVTVSS VL: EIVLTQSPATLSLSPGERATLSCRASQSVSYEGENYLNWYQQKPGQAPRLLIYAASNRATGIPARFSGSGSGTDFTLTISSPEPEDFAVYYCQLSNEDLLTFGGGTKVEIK , write its koff.
Solution: 0.000972
